Hello, the source for this data is PubChem BioAssay (NCATS), in case you need it.

Target: Cellular tumor antigen p53 (Homo sapiens)
Experiment: Primary qHTS for small molecule compounds that upregulate eGFP-tagged delta133p53alpha (in C-terminal) cells. (AID 2060324)
Details: NCI-H358 delta133p53alpha-eGFP (C-terminal tag), GFP fluorescence imaging, 24 h; series mostly up to 57.5 µM
Inconclusive results are not listed. The source made the active and inactive calls. The call rests on the fitted dose curve; in most records, active means well fitted activation curve with a large enough effect; inconclusive means small, poorly fitted or top-dose-only effect; inactive means flat fitted curve, though single readings scatter.
Outcomes: yes = active, no = inactive

{"compound": "COc1cc(C(=O)OCCCN2CCCN(CCCOC(=O)c3cc(OC)c(OC)c(OC)c3)CC2)cc(OC)c1OC", "category": "no"}
{"compound": "NCCCCN", "category": "no"}
{"compound": "Cc1nc2n(c(=O)c1CCN1CCC(c3noc4cc(F)ccc34)CC1)CCCC2O (stereo not drawn)", "category": "no"}
{"compound": "O=NN(CCCl)C(=O)NCCCl", "category": "no"}
{"compound": "COc1ccc(CCN(C)CCCC(C#N)(c2ccc(OC)c(OC)c2)C(C)C)cc1OC (stereo not drawn)", "category": "no"}
{"compound": "COc1ccc(/C=C/c2nc(NCCCN(C)C)c3ccccc3n2)cc1", "category": "no"}
{"compound": "CNc1cc(NS(=O)(=O)c2ccc(N)cc2)nc(NC)n1", "category": "no"}
{"compound": "O=C1NC(=O)c2c1c(-c1ccccc1)cc1[nH]c3ccc(O)cc3c21", "category": "yes"}
{"compound": "CCN(CC)CCNC(=O)c1cc(Cl)c(N)cc1OC", "category": "no"}
{"compound": "COc1ccc(Cl)cc1C(=O)NCCc1ccc(S(=O)(=O)NC(=O)NC2CCCCC2)cc1", "category": "no"}
{"compound": "N#Cc1cc2nc(O)c(O)nc2cc1[N+](=O)[O-]", "category": "no"}
{"compound": "CNCCc1cnc(CCC(c2ccccc2)c2ccccc2)[nH]1", "category": "no"}
{"compound": "N#C/C(=C\\c1ccc(O)c(O)c1)C(=O)c1ccc(O)c(O)c1", "category": "no"}
{"compound": "CN1CCC[C@@H]1Cc1c[nH]c2ccc(CCS(=O)(=O)c3ccccc3)cc12", "category": "no"}
{"compound": "NS(=O)(=O)c1cccc2c1c([N+](=O)[O-])cc1nc(O)c(O)nc12", "category": "no"}
{"compound": "Nc1nc(SCc2ccc([N+](=O)[O-])cc2)c2ncn([C@@H]3O[C@H](CO)[C@@H](O)[C@H]3O)c2n1", "category": "no"}
{"compound": "O[Si](CCCN1CCCCC1)(c1ccc(F)cc1)C1CCCCC1 (stereo not drawn)", "category": "no"}
{"compound": "N=C(N)SCCc1cnc[nH]1", "category": "no"}
{"compound": "O=S(=O)(c1cccc2c(I)cccc12)N1CCCNCC1", "category": "no"}
{"compound": "Nc1c2c(nc3ccccc13)CCCC2O (stereo not drawn)", "category": "no"}
{"compound": "N.N.N.N.N.N.N.N.N.N.N.N.N.N.O.O.[Ru+4].[Ru+5].[Ru+5]", "category": "no"}
{"compound": "CCN(CC)CCCCCCCCOC(=O)c1cc(OC)c(OC)c(OC)c1", "category": "no"}
{"compound": "Nc1nc2c(ncn2[C@@H]2O[C@H](CO)[C@@H](O)[C@@H]2O)c(=O)[nH]1", "category": "no"}

###

Assay: BET inhibitor-based combinations targeting novel dependencies in MECOM-rearranged (r) AML: MV-4-11 cell line (AID 2202233); further: nearly all actives have a fitted effect of over 45% in size; further: potency means the concentration at half of the fitted maximal effect
Conditions: MV-4-11 AML viability, CellTiter-Glo luminescence, 48 h; series mostly up to 46 µM
Results filed as inconclusive are left out. The source made the active and inactive calls. Calls come from the whole dose curve; as a rule, active = well fitted inhibition curve with a large enough effect; inconclusive = small, poorly fitted or top-dose-only effect; inactive = no such curve, though single readings can be large or run the other way.
outcome.measure: Potency

{"molecule": "O=C(Nc1ccc(Oc2ccnc3[nH]ccc23)c(F)c1)c1cccn(-c2ccc(F)cc2)c1=O", "outcome.measure": "Potency", "meas.value": "29.5 nM (active)"}
{"molecule": "Cc1cccc(Nc2nc(N[C@@H]3CCCC[C@H]3N)ncc2C(N)=O)c1", "outcome.measure": "Potency", "meas.value": "2630 nM (active)"}
{"molecule": "Cc1cccc(CN2CCN(C(c3ccccc3)c3ccc(Cl)cc3)CC2)c1 (stereo not drawn)", "outcome.measure": "Potency", "meas.value": "20900 nM (active)"}
{"molecule": "COC[C@H](NC(=O)c1cnc(C)s1)C(=O)N[C@@H](COC)C(=O)N[C@@H](Cc1ccccc1)C(=O)[C@@]1(C)CO1", "outcome.measure": "Potency", "meas.value": "83.3 nM (active)"}
{"molecule": "N#Cc1c(NC(=O)c2cccc3ccccc23)sc2c1CCCC2", "outcome.measure": "Potency", "meas.value": "372 nM (active)"}
{"molecule": "COc1ccc(-c2cc(=O)c3c(O)cc(O[C@@H]4O[C@H](CO[C@@H]5O[C@@H](C)[C@H](O)[C@@H](O)[C@H]5O)[C@@H](O)[C@H](O)[C@H]4O)cc3o2)cc1O", "outcome.measure": "Potency", "meas.value": "inactive"}
{"molecule": "COc1cc(NC(=O)c2ccc(-c3ccc(Cl)cc3)o2)cc(OC)c1", "outcome.measure": "Potency", "meas.value": "inactive"}
{"molecule": "O=C(NCc1cccc(O)c1)Nc1nc(-c2ccncc2)cs1", "outcome.measure": "Potency", "meas.value": "9340 nM (active)"}
{"molecule": "c1cc(Nc2cc(C3CC3)[nH]n2)nc(Nc2ccc3nc[nH]c3c2)n1", "outcome.measure": "Potency", "meas.value": "52.5 nM (active)"}
{"molecule": "Cc1cnc(Nc2cccc(CN3CCOCC3)c2)nc1Nc1cccc(S(=O)(=O)NC(C)(C)C)c1", "outcome.measure": "Potency", "meas.value": "332 nM (active)"}
{"molecule": "Cc1cc(O)c(-c2ccc([C@@H](C)CN(C)C)cc2)c2c1[nH]c(=O)c1sccc12", "outcome.measure": "Potency", "meas.value": "83.3 nM (active)"}
{"molecule": "O=C(O)c1ccccc1C(=O)Nc1ccc(-c2ccccc2)cc1", "outcome.measure": "Potency", "meas.value": "inactive"}
{"molecule": "CC(C)[C@H](N)C(=O)OCCOCn1cnc2c(=O)[nH]c(N)nc21", "outcome.measure": "Potency", "meas.value": "inactive"}
{"molecule": "c1cc(CN2CCCNCCNCCCNCC2)ccc1CN1CCCNCCNCCCNCC1", "outcome.measure": "Potency", "meas.value": "inactive"}
{"molecule": "S=P(N1CC1)(N1CC1)N1CC1", "outcome.measure": "Potency", "meas.value": "20900 nM (active)"}
{"molecule": "CN(C)CCOC(c1ccccc1)c1ccccc1", "outcome.measure": "Potency", "meas.value": "inactive"}
{"molecule": "Cc1c(C(=O)NN2CCCCC2)nn(-c2ccc(Cl)cc2Cl)c1-c1ccc(Cl)cc1", "outcome.measure": "Potency", "meas.value": "20900 nM (active)"}
{"molecule": "C#CCN[C@@H]1CCc2ccccc21", "outcome.measure": "Potency", "meas.value": "inactive"}
{"molecule": "CC(C)(F)C[C@H](N[C@@H](c1ccc(-c2ccc(S(C)(=O)=O)cc2)cc1)C(F)(F)F)C(=O)NC1(C#N)CC1", "outcome.measure": "Potency", "meas.value": "4680 nM (active)"}
{"molecule": "CCCS(=O)(=O)Nc1ccc(F)c(C(=O)c2c[nH]c3ncc(-c4ccc(Cl)cc4)cc23)c1F", "outcome.measure": "Potency", "meas.value": "33200 nM (active)"}
{"molecule": "CCN1CCN(C(=O)N[C@@H](C(=O)N[C@@H]2C(=O)N3C(C(=O)O)=C(CSc4nnnn4C)CS[C@H]23)c2ccc(O)cc2)C(=O)C1=O", "outcome.measure": "Potency", "meas.value": "inactive"}
{"molecule": "COc1ccc([C@@H]2CNC(=O)C2)cc1OC1CCCC1", "outcome.measure": "Potency", "meas.value": "inactive"}
{"molecule": "CCCC(CCC)C(=O)O", "outcome.measure": "Potency", "meas.value": "inactive"}
{"molecule": "CCCC(CCC)C(=O)Nc1ccn([C@@H]2O[C@H](CO)[C@@H](O)C2(F)F)c(=O)n1", "outcome.measure": "Potency", "meas.value": "1050 nM (active)"}
{"molecule": "Nc1ncnc2c1c(-c1cccc(OCc3ccccc3)c1)cn2C1CC(CN2CCCC2)C1 (stereo not drawn)", "outcome.measure": "Potency", "meas.value": "2630 nM (active)"}
{"molecule": "Cc1cn2cc(C(=O)N(C)CCO)cc(N[C@@H]3CCOc4cccc(C)c43)c2n1", "outcome.measure": "Potency", "meas.value": "inactive"}
{"molecule": "CC[C@]1(O)CC2CN(CCc3c([nH]c4ccccc34)[C@@](C(=O)OC)(c3cc4c(cc3OC)N(C)[C@H]3[C@@](O)(C(=O)OC)[C@H](OC(C)=O)[C@]5(CC)C=CCN6CC[C@]43[C@@H]65)C2)C1 (stereo partly drawn)", "outcome.measure": "Potency", "meas.value": "263 nM (active)"}
{"molecule": "Cc1cn([C@@H]2C[C@@H](O)[C@H](CO)O2)c(=O)[nH]c1=O", "outcome.measure": "Potency", "meas.value": "inactive"}
{"molecule": "CC#CCn1c(N2CCC[C@@H](N)C2)nc2c1c(=O)n(Cc1nc(C)c3ccccc3n1)c(=O)n2C", "outcome.measure": "Potency", "meas.value": "inactive"}
{"molecule": "CN(C)c1ccc2nc3ccc(=[N+](C)C)cc-3sc2c1", "outcome.measure": "Potency", "meas.value": "2630 nM (active)"}
{"molecule": "c1ccc(-c2oc3ncnc(NC[C@@H]4CCCO4)c3c2-c2ccccc2)cc1", "outcome.measure": "Potency", "meas.value": "inactive"}
{"molecule": "OCCN1C[C@H](O)[C@@H](O)[C@H](O)[C@H]1CO", "outcome.measure": "Potency", "meas.value": "inactive"}
{"molecule": "N#Cc1ccc(NC(=O)Nc2ccccc2Br)c2n[nH]nc12", "outcome.measure": "Potency", "meas.value": "inactive"}
{"molecule": "CCCCCCOC(=O)NC(=N)c1ccc(NCc2nc3cc(C(=O)N(CCC(=O)OCC)c4ccccn4)ccc3n2C)cc1", "outcome.measure": "Potency", "meas.value": "8330 nM (active)"}
{"molecule": "O=C(c1cc(Cc2n[nH]c(=O)c3ccccc23)ccc1F)N1CCN(C(=O)C2CC2)CC1", "outcome.measure": "Potency", "meas.value": "8330 nM (active)"}
{"molecule": "CC[C@@H](C)Nc1cc(C(=O)NC2CC3CCC(C2)N3c2ccc(C(=O)C3CC3)cn2)c(C)cc1C(N)=O (stereo partly drawn)", "outcome.measure": "Potency", "meas.value": "66.1 nM (active)"}
{"molecule": "Fc1ccc2[nH]ccc2c1-c1nc(N2CCOCC2)c2sc(CN3CCN(CC4CC4)CC3)cc2n1", "outcome.measure": "Potency", "meas.value": "14800 nM (active)"}
{"molecule": "COc1cc2nccc(Oc3ccc(NC(=O)Nc4ccc(F)cc4F)c(F)c3)c2cc1OC", "outcome.measure": "Potency", "meas.value": "93.4 nM (active)"}
